The origin of these recorded values is PubChem BioAssay (Tox21).

protocol: qHTS RealTime-Glo MT Cell Viability Assay in HEK293 cells - 32 hour (AID 1224868); note: nearly all actives have a fitted effect of over 50% in size
stated-conditions: RealTime-Glo luminescence; series mostly up to 76.8 µM
Inconclusive results are not listed. Active and inactive are the calls of the source. Calls come from the whole dose curve; as a rule, active = well fitted cell-killing curve with a large enough effect in the repeat runs; inconclusive = weak or mixed curves, or effect the other way; inactive = flat fitted curve, though single readings scatter.
Outcome (select one): t = active, f = inactive

Hi, do you know how C=C(C)C(=O)OCCC(C)OC(=O)C(=C)C (stereo not drawn) came out in this test?
f

Hello, I am checking results. What call was entered for `Nc1cc(C(Cl)=C(Cl)Cl)c(S(N)(=O)=O)cc1S(N)(=O)=O` ?
f

Hey, what did the test say about CC(C)CCCC(C)NCCC(C)C (stereo not drawn) ?
f

Record request — test call for `O=[N+]([O-])c1ccc(CCO)cc1`
f

GET /call?item= C=CCSCC1Nc2cc(Cl)c(S(N)(=O)=O)cc2S(=O)(=O)N1 (stereo not drawn) returns the recorded outcome of this test.
f

Recorded test call requested for CCCCOCC(C)OCC(C)O (stereo not drawn)
f

Each molecule tested received a call. Report the one for `Oc1ccc2c(c1)OC[C@@H](N1CCC(O)(c3ccc(F)cc3)CC1)[C@H]2O` .
f

Field: outcome | Entry: `CSc1nc(NC2CC2)nc(NC(C)(C)C)n1`
t

Recorded call for NC(CS)C(=O)O (stereo not drawn) ?
f

Hi team, can someone confirm the assay call for `O=C1OC(=O)c2cc([N+](=O)[O-])ccc21` ?
f

Status in this test for `NC(=O)c1ncn([C@@H]2O[C@H](CO)[C@@H](O)[C@H]2O)c1N` ?
f

Hi, sorry to bother you, what did the test record for `CCOC(=O)[C@H](CCc1ccccc1)N[C@@H](C)C(=O)N1CCC[C@H]1C(=O)O` ?
f

GET /call?item= `NS(=O)(=O)c1cc2c(cc1Cl)NC(CSCc1ccccc1)=NS2(=O)=O` returns the recorded outcome of this test.
f

Call for entry `C=CCOc1nc(OCC=C)nc(OCC=C)n1` :
f

Look up the recorded call for `CCCCCCOC(=O)CC(CC(=O)OCCCCCC)(OC(=O)CCC)C(=O)OCCCCCC` in this test.
f

How did this test come out for `CC(=O)OC(C)(C)C` ?
f

Given `CCCCN(CCO)CCO` , state the outcome it received in this test.
f

What classification did `N#CC1(O)CCCCC1` end up with in this test?
f

Recorded test call requested for `CC(C)(O)C(=O)c1ccc(OCCO)cc1`
f

Recorded test outcome, item `O=C(O)C1CCC1`
f

Hey, what did the test say about `OCCN1C[C@H](O)[C@@H](O)[C@H](O)[C@H]1CO` ?
f

Recorded test call requested for `Nc1nc(F)nc2c1ncn2[C@@H]1O[C@H](CO)[C@@H](O)[C@@H]1O`
f

Tell me the recorded outcome of this test for `CC(=O)c1ccc(C)cc1` .
f

// return assay outcome for C=C(C)C1CC=C(C)C(O)C1 (stereo not drawn)
f

# lookup: test call for `Nc1ccc2cc(S(=O)(=O)O)ccc2c1`
f

Could you check what this test reported for `Cc1nc(-c2ccc(OCC(C)C)c(C#N)c2)sc1C(=O)O` ?
f

Could you please tell me the result logged for `CC(C)=CC(=O)O` in this assay?
f

For this molecule, state the assay outcome: `OCCCCCCO`
f

* * *

measured-target: Aromatase (Homo sapiens) (UniProt P11511)
Sequence (P11511 whole entry, looked up): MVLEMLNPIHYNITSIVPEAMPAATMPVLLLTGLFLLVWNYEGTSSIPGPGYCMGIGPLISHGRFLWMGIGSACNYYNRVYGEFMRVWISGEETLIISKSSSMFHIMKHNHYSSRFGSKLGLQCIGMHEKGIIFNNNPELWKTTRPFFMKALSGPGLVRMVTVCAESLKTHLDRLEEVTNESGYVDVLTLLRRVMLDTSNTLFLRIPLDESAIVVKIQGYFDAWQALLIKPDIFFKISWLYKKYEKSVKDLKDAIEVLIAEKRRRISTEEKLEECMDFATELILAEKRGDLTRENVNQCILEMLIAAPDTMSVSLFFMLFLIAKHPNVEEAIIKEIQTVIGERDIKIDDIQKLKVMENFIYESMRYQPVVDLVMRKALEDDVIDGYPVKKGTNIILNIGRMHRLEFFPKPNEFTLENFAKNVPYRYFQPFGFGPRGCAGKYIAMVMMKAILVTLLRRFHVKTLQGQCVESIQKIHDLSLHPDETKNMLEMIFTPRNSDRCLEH
protocol: qHTS assay to identify aromatase inhibitors (AID 743083); note: nearly all actives have a fitted effect of over 55% in size
stated-conditions: MCF-7 aro ERE, testosterone-driven ERE luciferase, 24 h; series mostly up to 70.3 µM
Results filed as inconclusive are left out. Calls of active or inactive are those of the source. The call rests on the fitted dose curve; in most records, active means well fitted inhibition curve with a large enough effect in the repeat runs; inconclusive means weak or mixed curves; inactive means no such curve, though single readings can be large or run the other way.
readout-type: outcome

CCN1CCCC1CNC(=O)c1cc(S(N)(=O)=O)ccc1OC (stereo not drawn); inactive
CN(C)CCn1nnnc1SCC1=C(C(=O)O)N2C(=O)[C@@H](NC(=O)Cc3csc(N)n3)[C@H]2SC1; inactive
CCCC(C)C(=O)O (stereo not drawn); inactive
